All values here come from patent US20230061973A1.

- target_or_system: T1, exemplary TAT frataxin fusion molecule (HIV-1, UniProt Q16595 1-210)
- T1 construct: in the bridging assays biotinylated and sulfotagged forms were used; also called TAT-FXN fusion molecule; TAT FXN fusion molecule
- T1 sequence: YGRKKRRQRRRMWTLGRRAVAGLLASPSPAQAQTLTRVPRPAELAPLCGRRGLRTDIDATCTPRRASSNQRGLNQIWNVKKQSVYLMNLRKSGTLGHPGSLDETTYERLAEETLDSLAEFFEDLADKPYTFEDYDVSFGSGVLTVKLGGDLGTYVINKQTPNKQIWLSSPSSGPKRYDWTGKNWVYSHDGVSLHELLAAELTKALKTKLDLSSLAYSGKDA
- method_summary: PK sandwich ELISA in human plasma, antibody as capture, HRP anti-frataxin mAb detection
assay_metric: Mean OD at plasma conc. 0.800 ng/mL

Asked: I have this binder here, antibody 12-10 (antibody, V domains shown, Rabbit monoclonal) VH: QSLEESGGDLVKPGASLTLTCTASGFSFSSGYWICWVRQAPGKGLEWIACIYTGDGDTSYASWAKGRFTISKTSSTTVTLQMTSLTVADTAIYFCARDTSGTFYYNLWGPGTLVAVSS VL: AAVLTQTPSSVSAAVGGTVTISCQSSESVYKTNYLSWFQKKPGQPPKLLIYDASTLASGVPSRFSGSGSGTQFTLTISDLECDDAATYYCAGGYSDDINAFGGGTEVEIK , and I need its recorded Mean OD at plasma conc. 0.800 ng/mL.
Given back: 0.089 OD
